Source of measurements: the kinase profiling compilation of Christmann-Franck et al. (2016)

TESTED SYSTEM: TGFBR2 (human)
EXPERIMENTAL DETAILS: KINOMEscan competition binding
RUN CONDITIONS: compound 10.0 µM
Assignment: determine reported kinase still bound, per cent of control for the given molecules.
One number for each entry, in %.

Sample answers from the record:
[[record]]
query_smiles = "COc1ccc(CNC(=O)Nc2ncc([N+](=O)[O-])s2)cc1"
reported_endpoint = "kinase still bound, per cent of control"
recorded_value = 70

[[record]]
query_smiles = "Cn1cc(C2=C(c3ccc(Cl)cc3Cl)C(=O)NC2=O)c2ccccc21"
reported_endpoint = "kinase still bound, per cent of control"
recorded_value = 100

[[record]]
query_smiles = "Cc1cnc(-c2cnc(NCCNc3ccc(C#N)cn3)nc2-c2ccc(Cl)cc2Cl)[nH]1"
reported_endpoint = "kinase still bound, per cent of control"
recorded_value = 100


Now look at this entry.
Data point: O=C1Nc2cc(Br)ccc2/C1=C1/Nc2ccccc2/C1=N\O ; kinase still bound, per cent of control = 58

====

TESTED SYSTEM: UniProt P27448
Sequence (P27448 whole entry, looked up): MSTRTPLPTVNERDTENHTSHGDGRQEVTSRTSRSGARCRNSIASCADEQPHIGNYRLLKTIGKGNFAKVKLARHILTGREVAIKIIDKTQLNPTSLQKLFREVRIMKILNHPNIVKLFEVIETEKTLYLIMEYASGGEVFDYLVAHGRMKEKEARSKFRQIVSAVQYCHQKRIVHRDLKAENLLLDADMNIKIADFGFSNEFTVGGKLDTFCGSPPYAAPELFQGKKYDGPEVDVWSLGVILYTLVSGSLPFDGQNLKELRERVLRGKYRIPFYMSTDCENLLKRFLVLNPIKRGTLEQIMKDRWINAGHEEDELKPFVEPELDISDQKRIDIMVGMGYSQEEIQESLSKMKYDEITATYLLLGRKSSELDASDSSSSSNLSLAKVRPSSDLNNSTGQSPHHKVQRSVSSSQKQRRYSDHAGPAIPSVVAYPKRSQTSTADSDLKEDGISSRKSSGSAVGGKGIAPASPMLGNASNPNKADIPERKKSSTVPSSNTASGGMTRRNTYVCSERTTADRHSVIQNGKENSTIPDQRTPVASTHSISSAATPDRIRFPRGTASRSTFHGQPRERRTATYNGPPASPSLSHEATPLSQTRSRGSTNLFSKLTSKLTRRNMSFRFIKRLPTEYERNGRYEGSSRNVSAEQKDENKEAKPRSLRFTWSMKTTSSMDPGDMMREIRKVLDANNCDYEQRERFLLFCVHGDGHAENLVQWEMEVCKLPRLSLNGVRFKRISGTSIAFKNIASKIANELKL
EXPERIMENTAL DETAILS: KINOMEscan competition binding
RUN CONDITIONS: compound 10.0 µM
Exercise: for every item that follows, state its recorded kinase still bound, per cent of control.
Give bare numbers, in %.

[[record]]
query_smiles = "Cn1cc(C2=C(c3ccc(Cl)cc3Cl)C(=O)NC2=O)c2ccccc21"
reported_endpoint = "kinase still bound, per cent of control"
recorded_value = 86

[[record]]
query_smiles = "O=C1Nc2cc(Br)ccc2/C1=C1/Nc2ccccc2/C1=N\\O"
reported_endpoint = "kinase still bound, per cent of control"
recorded_value = 28

[[record]]
query_smiles = "Cc1cnc(-c2cnc(NCCNc3ccc(C#N)cn3)nc2-c2ccc(Cl)cc2Cl)[nH]1"
reported_endpoint = "kinase still bound, per cent of control"
recorded_value = 100


Recorded result, COc1ccc(CNC(=O)Nc2ncc([N+](=O)[O-])s2)cc1 , kinase still bound, per cent of control: 100

====

So I've got a bunch of molecules here, and I need their kinase still bound, per cent of control values.
TESTED SYSTEM: EPHA1 (human) (UniProt P21709)
Sequence (P21709 whole entry, looked up): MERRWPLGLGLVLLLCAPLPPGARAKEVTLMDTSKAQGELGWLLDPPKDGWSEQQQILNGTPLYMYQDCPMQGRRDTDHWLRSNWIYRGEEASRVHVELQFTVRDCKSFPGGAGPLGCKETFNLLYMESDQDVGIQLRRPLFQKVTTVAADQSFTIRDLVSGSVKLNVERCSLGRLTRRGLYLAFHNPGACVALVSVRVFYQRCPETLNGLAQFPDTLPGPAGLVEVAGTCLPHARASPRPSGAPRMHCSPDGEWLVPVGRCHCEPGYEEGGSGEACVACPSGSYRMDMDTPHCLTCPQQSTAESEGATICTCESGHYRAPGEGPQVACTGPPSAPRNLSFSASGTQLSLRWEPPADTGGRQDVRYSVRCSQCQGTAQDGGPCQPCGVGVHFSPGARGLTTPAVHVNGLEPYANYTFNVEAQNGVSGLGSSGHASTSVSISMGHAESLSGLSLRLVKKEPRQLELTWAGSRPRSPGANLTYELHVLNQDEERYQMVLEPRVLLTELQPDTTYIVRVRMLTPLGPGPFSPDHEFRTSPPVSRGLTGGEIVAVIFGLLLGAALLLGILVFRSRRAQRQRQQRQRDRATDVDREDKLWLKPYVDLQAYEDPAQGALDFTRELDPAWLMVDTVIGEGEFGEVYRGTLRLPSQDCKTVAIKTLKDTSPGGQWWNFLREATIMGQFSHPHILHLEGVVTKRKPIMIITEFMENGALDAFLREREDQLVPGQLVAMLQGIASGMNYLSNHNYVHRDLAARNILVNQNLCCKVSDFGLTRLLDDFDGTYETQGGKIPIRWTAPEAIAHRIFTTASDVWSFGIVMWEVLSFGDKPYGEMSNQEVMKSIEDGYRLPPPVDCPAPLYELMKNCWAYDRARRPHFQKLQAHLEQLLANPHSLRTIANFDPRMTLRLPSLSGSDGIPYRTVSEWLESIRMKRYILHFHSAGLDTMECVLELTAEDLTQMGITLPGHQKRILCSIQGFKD
EXPERIMENTAL DETAILS: KINOMEscan competition binding
RUN CONDITIONS: compound 10.0 µM
Answers are plain numbers, in %.

The examples below pair each entry with its known result.
[[record]]
query_smiles = "Cc1cnc(-c2cnc(NCCNc3ccc(C#N)cn3)nc2-c2ccc(Cl)cc2Cl)[nH]1"
readout_units = "%"
recorded_value = 100

[[record]]
query_smiles = "COc1ccc(CNC(=O)Nc2ncc([N+](=O)[O-])s2)cc1"
readout_units = "%"
recorded_value = 100

[[record]]
query_smiles = "Cn1cc(C2=C(c3ccc(Cl)cc3Cl)C(=O)NC2=O)c2ccccc21"
readout_units = "%"
recorded_value = 100


Form field kinase still bound, per cent of control for item O=C1Nc2cc(Br)ccc2/C1=C1/Nc2ccccc2/C1=N\O on EPHA1 (human) (UniProt P21709): 85

====

TESTED SYSTEM: CDK15 (human)
EXPERIMENTAL DETAILS: KINOMEscan competition binding
RUN CONDITIONS: compound 10.0 µM
Task for the reader: assign each of the following molecules its reported kinase still bound, per cent of control.
Report the figure along with its unit, number first.

Worked set:
[[record]]
query_smiles = "Cn1cc(C2=C(c3ccc(Cl)cc3Cl)C(=O)NC2=O)c2ccccc21"
tested_system = "CDK15 (human)"
recorded_value = "66%"

[[record]]
query_smiles = "Cc1cnc(-c2cnc(NCCNc3ccc(C#N)cn3)nc2-c2ccc(Cl)cc2Cl)[nH]1"
tested_system = "CDK15 (human)"
recorded_value = "95%"

[[record]]
query_smiles = "O=C1Nc2cc(Br)ccc2/C1=C1/Nc2ccccc2/C1=N\\O"
tested_system = "CDK15 (human)"
recorded_value = "53%"


The record that follows has no kinase still bound, per cent of control shown yet.
Item COc1ccc(CNC(=O)Nc2ncc([N+](=O)[O-])s2)cc1 ; assay system CDK15 (human); kinase still bound, per cent of control reported as 100%

====

I'd appreciate it if you could supply kinase still bound, per cent of control values for the items below.
TESTED SYSTEM: UniProtKB P78368
EXPERIMENTAL DETAILS: KINOMEscan competition binding
RUN CONDITIONS: compound 10.0 µM
One number for each entry, in %.

Below, each entry is followed by its recorded kinase still bound, per cent of control result.
[[record]]
query_smiles = "Cn1cc(C2=C(c3ccc(Cl)cc3Cl)C(=O)NC2=O)c2ccccc21"
reported_endpoint = "kinase still bound, per cent of control"
recorded_value = 100

[[record]]
query_smiles = "Cc1cnc(-c2cnc(NCCNc3ccc(C#N)cn3)nc2-c2ccc(Cl)cc2Cl)[nH]1"
reported_endpoint = "kinase still bound, per cent of control"
recorded_value = 59

[[record]]
query_smiles = "O=C1Nc2cc(Br)ccc2/C1=C1/Nc2ccccc2/C1=N\\O"
reported_endpoint = "kinase still bound, per cent of control"
recorded_value = 78


Please find the next compound below.
Record COc1ccc(CNC(=O)Nc2ncc([N+](=O)[O-])s2)cc1 , field kinase still bound, per cent of control: 82

====

TESTED SYSTEM: MAP3K15 (human) (UniProt Q6ZN16)
Sequence (Q6ZN16 whole entry, looked up): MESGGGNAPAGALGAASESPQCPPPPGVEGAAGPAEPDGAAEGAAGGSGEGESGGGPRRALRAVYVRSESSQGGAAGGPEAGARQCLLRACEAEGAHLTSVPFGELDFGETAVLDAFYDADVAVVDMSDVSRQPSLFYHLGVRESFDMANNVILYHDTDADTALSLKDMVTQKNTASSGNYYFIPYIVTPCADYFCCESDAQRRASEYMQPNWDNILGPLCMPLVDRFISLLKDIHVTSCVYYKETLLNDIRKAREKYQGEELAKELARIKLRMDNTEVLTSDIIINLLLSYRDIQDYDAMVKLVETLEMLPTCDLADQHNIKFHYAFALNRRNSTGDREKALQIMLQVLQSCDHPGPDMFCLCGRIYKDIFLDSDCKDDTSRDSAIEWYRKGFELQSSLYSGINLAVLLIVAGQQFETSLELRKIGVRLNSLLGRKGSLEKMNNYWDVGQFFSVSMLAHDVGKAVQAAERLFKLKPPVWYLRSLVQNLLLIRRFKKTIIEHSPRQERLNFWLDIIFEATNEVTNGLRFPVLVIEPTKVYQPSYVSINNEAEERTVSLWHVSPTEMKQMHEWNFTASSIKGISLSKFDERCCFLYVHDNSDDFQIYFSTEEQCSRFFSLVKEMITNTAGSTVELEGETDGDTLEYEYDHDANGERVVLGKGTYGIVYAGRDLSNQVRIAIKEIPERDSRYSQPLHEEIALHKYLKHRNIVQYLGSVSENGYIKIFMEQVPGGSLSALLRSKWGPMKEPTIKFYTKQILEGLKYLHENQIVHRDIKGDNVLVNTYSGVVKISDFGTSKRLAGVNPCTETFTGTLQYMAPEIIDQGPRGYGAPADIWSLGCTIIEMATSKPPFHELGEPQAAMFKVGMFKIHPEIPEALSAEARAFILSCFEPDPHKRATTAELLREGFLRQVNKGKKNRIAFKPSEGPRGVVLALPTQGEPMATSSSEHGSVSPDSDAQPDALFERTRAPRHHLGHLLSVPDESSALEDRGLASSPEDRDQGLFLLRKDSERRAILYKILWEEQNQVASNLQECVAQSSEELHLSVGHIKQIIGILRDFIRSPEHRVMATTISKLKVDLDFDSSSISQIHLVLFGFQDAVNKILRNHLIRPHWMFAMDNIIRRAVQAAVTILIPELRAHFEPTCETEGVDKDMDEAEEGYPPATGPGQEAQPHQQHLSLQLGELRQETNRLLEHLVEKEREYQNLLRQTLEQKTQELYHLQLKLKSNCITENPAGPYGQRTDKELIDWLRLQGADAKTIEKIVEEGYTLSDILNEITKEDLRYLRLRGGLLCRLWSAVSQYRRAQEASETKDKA
EXPERIMENTAL DETAILS: KINOMEscan competition binding
RUN CONDITIONS: compound 10.0 µM
Task for the reader: assign each of the following compounds its reported kinase still bound, per cent of control.
One number for each entry, in %.

Record excerpt, results attached:
[[record]]
query_smiles = "Cn1cc(C2=C(c3ccc(Cl)cc3Cl)C(=O)NC2=O)c2ccccc21"
recorded_value = 100

[[record]]
query_smiles = "COc1ccc(CNC(=O)Nc2ncc([N+](=O)[O-])s2)cc1"
recorded_value = 100

[[record]]
query_smiles = "Cc1cnc(-c2cnc(NCCNc3ccc(C#N)cn3)nc2-c2ccc(Cl)cc2Cl)[nH]1"
recorded_value = 100


Next compound, kinase still bound, per cent of control to be filled in.
Consider O=C1Nc2cc(Br)ccc2/C1=C1/Nc2ccccc2/C1=N\O . Its measured kinase still bound, per cent of control is 43

====

Field: kinase still bound, per cent of control. Provide a value for each of the compounds that follow.
TESTED SYSTEM: SLK (human) (UniProt Q9H2G2)
Sequence (Q9H2G2 whole entry, looked up): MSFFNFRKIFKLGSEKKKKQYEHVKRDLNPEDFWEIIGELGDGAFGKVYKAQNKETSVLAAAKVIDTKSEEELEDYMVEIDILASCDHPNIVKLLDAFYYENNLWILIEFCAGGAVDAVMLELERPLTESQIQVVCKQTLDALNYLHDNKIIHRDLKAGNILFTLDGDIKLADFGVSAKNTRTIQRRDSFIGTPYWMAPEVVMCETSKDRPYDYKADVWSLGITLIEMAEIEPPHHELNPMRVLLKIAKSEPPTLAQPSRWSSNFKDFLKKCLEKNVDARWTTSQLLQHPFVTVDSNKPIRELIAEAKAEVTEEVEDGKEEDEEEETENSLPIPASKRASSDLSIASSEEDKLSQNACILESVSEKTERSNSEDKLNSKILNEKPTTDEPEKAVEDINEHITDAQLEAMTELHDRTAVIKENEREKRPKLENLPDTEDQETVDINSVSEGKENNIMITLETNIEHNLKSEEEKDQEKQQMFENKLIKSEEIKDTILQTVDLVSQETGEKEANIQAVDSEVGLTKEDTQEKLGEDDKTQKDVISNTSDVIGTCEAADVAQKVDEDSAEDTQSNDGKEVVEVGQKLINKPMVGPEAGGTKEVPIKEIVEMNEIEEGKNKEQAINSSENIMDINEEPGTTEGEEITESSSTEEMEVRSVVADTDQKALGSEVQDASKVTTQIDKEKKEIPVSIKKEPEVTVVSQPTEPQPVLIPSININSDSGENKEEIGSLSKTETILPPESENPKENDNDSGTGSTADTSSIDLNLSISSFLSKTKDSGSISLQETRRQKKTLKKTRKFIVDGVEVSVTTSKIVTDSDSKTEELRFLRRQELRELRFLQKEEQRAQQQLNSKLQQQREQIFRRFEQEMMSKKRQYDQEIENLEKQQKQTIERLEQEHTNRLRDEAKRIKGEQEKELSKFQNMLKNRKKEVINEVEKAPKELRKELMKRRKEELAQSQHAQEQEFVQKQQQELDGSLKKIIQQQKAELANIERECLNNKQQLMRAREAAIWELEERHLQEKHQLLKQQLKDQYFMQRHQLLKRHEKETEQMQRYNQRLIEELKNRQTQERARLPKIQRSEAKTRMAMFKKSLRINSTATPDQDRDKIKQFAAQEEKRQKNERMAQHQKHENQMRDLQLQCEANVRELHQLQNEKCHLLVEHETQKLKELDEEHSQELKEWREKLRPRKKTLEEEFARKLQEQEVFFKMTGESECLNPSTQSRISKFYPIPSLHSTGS
EXPERIMENTAL DETAILS: KINOMEscan competition binding
RUN CONDITIONS: compound 10.0 µM
Numbers only, in %.

Previously resolved entries follow.
[[record]]
query_smiles = "Cn1cc(C2=C(c3ccc(Cl)cc3Cl)C(=O)NC2=O)c2ccccc21"
tested_system = "SLK (human) (UniProt Q9H2G2)"
reported_endpoint = "kinase still bound, per cent of control"
recorded_value = 8.7

[[record]]
query_smiles = "COc1ccc(CNC(=O)Nc2ncc([N+](=O)[O-])s2)cc1"
tested_system = "SLK (human) (UniProt Q9H2G2)"
reported_endpoint = "kinase still bound, per cent of control"
recorded_value = 100

[[record]]
query_smiles = "O=C1Nc2cc(Br)ccc2/C1=C1/Nc2ccccc2/C1=N\\O"
tested_system = "SLK (human) (UniProt Q9H2G2)"
reported_endpoint = "kinase still bound, per cent of control"
recorded_value = 44


Entry Cc1cnc(-c2cnc(NCCNc3ccc(C#N)cn3)nc2-c2ccc(Cl)cc2Cl)[nH]1 ; kinase still bound, per cent of control = 63

====

Answer each item with its documented kinase still bound, per cent of control.
TESTED SYSTEM: PIP4K2B (human) (UniProt P78356)
Sequence (P78356 whole entry, looked up): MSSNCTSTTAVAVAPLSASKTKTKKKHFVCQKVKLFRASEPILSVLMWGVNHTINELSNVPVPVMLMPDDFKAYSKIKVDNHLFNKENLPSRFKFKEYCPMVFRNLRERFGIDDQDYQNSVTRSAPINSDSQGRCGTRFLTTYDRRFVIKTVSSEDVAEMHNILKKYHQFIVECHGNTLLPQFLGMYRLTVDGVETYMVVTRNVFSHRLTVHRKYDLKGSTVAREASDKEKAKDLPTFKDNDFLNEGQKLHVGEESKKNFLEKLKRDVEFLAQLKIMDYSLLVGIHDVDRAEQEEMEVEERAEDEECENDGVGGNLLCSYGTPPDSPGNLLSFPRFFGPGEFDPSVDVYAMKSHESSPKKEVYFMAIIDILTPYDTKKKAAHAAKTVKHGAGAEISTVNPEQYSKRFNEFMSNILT
EXPERIMENTAL DETAILS: KINOMEscan competition binding
RUN CONDITIONS: compound 10.0 µM
Give bare numbers, in %.

# example entries with known answers
[[record]]
query_smiles = "O=C1Nc2cc(Br)ccc2/C1=C1/Nc2ccccc2/C1=N\\O"
tested_system = "PIP4K2B (human) (UniProt P78356)"
recorded_value = 1.5

[[record]]
query_smiles = "COc1ccc(CNC(=O)Nc2ncc([N+](=O)[O-])s2)cc1"
tested_system = "PIP4K2B (human) (UniProt P78356)"
recorded_value = 69

[[record]]
query_smiles = "Cn1cc(C2=C(c3ccc(Cl)cc3Cl)C(=O)NC2=O)c2ccccc21"
tested_system = "PIP4K2B (human) (UniProt P78356)"
recorded_value = 86


Recorded kinase still bound, per cent of control (compound Cc1cnc(-c2cnc(NCCNc3ccc(C#N)cn3)nc2-c2ccc(Cl)cc2Cl)[nH]1 ): 98

====

TESTED SYSTEM: PKN1 (human)
EXPERIMENTAL DETAILS: KINOMEscan competition binding
RUN CONDITIONS: compound 10.0 µM
REPORTED ENDPOINT: kinase still bound, per cent of control (%)
Answers are plain numbers, in %.

Take a look at these entries with their results.
[[record]]
query_smiles = "COc1ccc(CNC(=O)Nc2ncc([N+](=O)[O-])s2)cc1"
readout_units = "%"
recorded_value = 100

[[record]]
query_smiles = "O=C1Nc2cc(Br)ccc2/C1=C1/Nc2ccccc2/C1=N\\O"
readout_units = "%"
recorded_value = 79

[[record]]
query_smiles = "Cc1cnc(-c2cnc(NCCNc3ccc(C#N)cn3)nc2-c2ccc(Cl)cc2Cl)[nH]1"
readout_units = "%"
recorded_value = 100


--- query ---
Record Cn1cc(C2=C(c3ccc(Cl)cc3Cl)C(=O)NC2=O)c2ccccc21 . Reported kinase still bound, per cent of control: 73
